What follows is a record of AC50 for Cytochrome P450 2C9 (Homo sapiens).
Measurement Type: AC50

# Compound, Experimental System, Test Value
measured = [
    ("S=C(Nc1ccccc1)Nc1nccs1", "Cytochrome P450 2C9 (Homo sapiens)", "20 µM (inconclusive)"),
    ("O=C1c2ccccc2C(Cc2ccncc2)(Cc2ccncc2)c2ccccc21", "Cytochrome P450 2C9 (Homo sapiens)", "20 µM (inconclusive)"),
    ("CC(C)[C@@H]1O[C@H](/C=C\\c2ccccc2)OCC1(C)C", "Cytochrome P450 2C9 (Homo sapiens)", "3.16 µM (inconclusive)"),
    ("O=C(Nc1ccc(Cl)cc1)OCc1cc(-c2ccccc2)on1", "Cytochrome P450 2C9 (Homo sapiens)", "2.82 µM (inconclusive)"),
    ("Cc1ccc(/C=C2\\OC(=O)c3ccccc32)cc1", "Cytochrome P450 2C9 (Homo sapiens)", "0.355 µM (inconclusive)"),
    ("Cc1ccc(C(=O)NC(=S)Nc2cccc3nsnc23)cc1", "Cytochrome P450 2C9 (Homo sapiens)", "35.5 µM (inconclusive)"),
    ("CCN1C(=O)C2(SC(NC(C)=O)=NN2C(C)=O)c2cc(C)ccc21 (stereo not drawn)", "Cytochrome P450 2C9 (Homo sapiens)", "31.6 µM (inconclusive)"),
    ("COc1ccccc1C(OC(=O)c1cccs1)C(=O)NCC1CCCO1 (stereo not drawn)", "Cytochrome P450 2C9 (Homo sapiens)", "14.1 µM (inconclusive)"),
]

###

What follows is a record of AC50 for Cytochrome P450 2D6 (Homo sapiens, UniProt P10635).

# Molecule, AC50
records = [
    ("COC(=O)[C@@]1(Cc2ccc(OC)cc2)[C@H]2c3cc(C(=O)N4CCCC4)n(CCc4ccc(O)c(O)c4)c3C[C@H]2CN1C(=O)c1ccccc1", "39.8 µM (inconclusive)"),
    ("S=C(Nc1ccccc1)Nc1ccccc1C#Cc1ccccc1", "15.8 µM (inconclusive)"),
    ("O=c1c(CCc2ccccc2)nc2cnc(N3CCNCC3)nc2n1C1CC1", "39.8 µM (inconclusive)"),
    ("S=C(Nc1ccccc1)Nc1nccs1", "31.6 µM (inconclusive)"),
    ("Cc1ccc(C(=O)N/N=C/c2ccc([N+](=O)[O-])s2)cc1", "15.8 µM (inconclusive)"),
    ("O=C(Nc1ccc(Cl)cc1)OCc1cc(-c2ccccc2)on1", "3.98 µM (inconclusive)"),
    ("Cc1c(Cl)c([N+](=O)[O-])nn1Cc1ccc(C(=O)N/N=C\\c2cccc(Br)c2)o1", "25.1 µM (inconclusive)"),
    ("CCCN1CCN(CCCNC(=O)Cn2nc(-c3ccc(C)cc3)ccc2=O)CC1", "20 µM (inconclusive)"),
    ("COc1ccc(CNc2cc(-c3ccccc3Cl)ncn2)c(OC)c1", "39.8 µM (inconclusive)"),
    ("COc1ccc(C2C(=O)N(CCc3ccccc3)CC(=O)N2C2CCCC2)cc1 (stereo unspecified)", "14.1 µM (inconclusive)"),
    ("O=c1c(-c2ccc(F)cc2)nc2cncnc2n1-c1ccccc1", "20 µM (inconclusive)"),
    ("CC(C)(C)n1ncc2c(=O)n(CC(=O)NCc3ccccc3Cl)cnc21", "11.2 µM (inconclusive)"),
    ("Cc1nc2sc(C#N)c(N)c2c2c1CCCC2", "0.398 µM (inconclusive)"),
    ("CCCNC(=O)OC[C@@H]1O[C@H](c2ccccc2)C=C[C@@H]1Oc1ccc(OC)cc1", "3.16 µM (inconclusive)"),
    ("COCCNc1nc(-c2ccc(N(C)C)cc2)nc2ccccc12", "39.8 µM (inconclusive)"),
    ("Cc1cccc(-n2nc([N+](=O)[O-])c(NCc3cccnc3)[n+]2[O-])c1", "12.6 µM (inconclusive)"),
]

// data source = ChEMBL document CHEMBL1201862
